- Test system: HBV (HepG2.117 cell line, inducibly HBV producing)
- procedure-text: Anti-HBV activity: intracellular HBV DNA by real-time PCR in HepG2.117 cells after 3 days of treatment
- Format: cell-based, hepatitis B virus
- assay-setup: Hepatitis B virus, HepG2.117, 72 h, HepG2.117 cells, 3 days of treatment, intracellular HBV DNA by real-time PCR; mean value; read-out: EC50 (μM, mean value)
Let's look at some compounds and their measured EC50.
experimental-endpoint: EC50 (µM)

# smiles-code, assayed-system, unit-descriptor, operator, data-value
rows = [
    ("CC(C)Nc1nc2c(c(=O)n1-c1ccc(S(C)(=O)=O)cc1)CCN(C(=O)c1ccc3ocnc3c1)C2", "HBV (HepG2.117 cell line, inducibly HBV producing)", "µM", ">", 7.2),
    ("CCc1cc(C(=O)N2CCc3c(nc(NC(C)C)n(-c4ccc(S(C)(=O)=O)cc4)c3=O)C2)ccc1Cl", "HBV (HepG2.117 cell line, inducibly HBV producing)", "µM", "=", 0.62),
    ("CC(C)Nc1nc2c(c(=O)n1-c1ccc3c(c1)CC(=O)N3)C[C@@H](C)N(C(=O)c1ccc(Cl)c(Cl)c1)C2", "HBV (HepG2.117 cell line, inducibly HBV producing)", "µM", "=", 0.16),
    ("CC(C)Nc1nc2c(c(=O)n1-c1ccc(-n3cccn3)cc1)CCN(C(=O)c1ccc(Cl)c(Cl)c1)C2", "HBV (HepG2.117 cell line, inducibly HBV producing)", "µM", "=", 0.6),
    ("CC(C)Nc1nc2c(c(=O)n1-c1ccc(C(=O)NC3(C(=O)O)CC3)cc1)C[C@@H](C)N(C(=O)c1ccc(Cl)c(Cl)c1)C2", "HBV (HepG2.117 cell line, inducibly HBV producing)", "µM", "=", 13.4),
    ("CC(C)Nc1nc2c(c(=O)n1-c1ccc(-c3ncccn3)cc1)CCN(C(=O)c1ccc(Cl)c(Cl)c1)C2", "HBV (HepG2.117 cell line, inducibly HBV producing)", "µM", "=", 0.71),
    ("COc1ccccc1-n1c(N[C@H](C)c2ccccc2)nc2c(c1=O)CCN(C(=O)c1ccc(Cl)c(Cl)c1)C2", "HBV (HepG2.117 cell line, inducibly HBV producing)", "µM", "=", 6.99),
]

Data credit: patent US20230091047A1
